biological target: hERG potassium ion channels (Homo sapiens (Human), UniProt Q12809); assay: Experiment 4: hERG potassium ion channel inhibition, automated patch clamp (Qpatch), CHO-hERG cells; conditions: highest test concentration 40 μM
Sequence (Q12809 whole entry): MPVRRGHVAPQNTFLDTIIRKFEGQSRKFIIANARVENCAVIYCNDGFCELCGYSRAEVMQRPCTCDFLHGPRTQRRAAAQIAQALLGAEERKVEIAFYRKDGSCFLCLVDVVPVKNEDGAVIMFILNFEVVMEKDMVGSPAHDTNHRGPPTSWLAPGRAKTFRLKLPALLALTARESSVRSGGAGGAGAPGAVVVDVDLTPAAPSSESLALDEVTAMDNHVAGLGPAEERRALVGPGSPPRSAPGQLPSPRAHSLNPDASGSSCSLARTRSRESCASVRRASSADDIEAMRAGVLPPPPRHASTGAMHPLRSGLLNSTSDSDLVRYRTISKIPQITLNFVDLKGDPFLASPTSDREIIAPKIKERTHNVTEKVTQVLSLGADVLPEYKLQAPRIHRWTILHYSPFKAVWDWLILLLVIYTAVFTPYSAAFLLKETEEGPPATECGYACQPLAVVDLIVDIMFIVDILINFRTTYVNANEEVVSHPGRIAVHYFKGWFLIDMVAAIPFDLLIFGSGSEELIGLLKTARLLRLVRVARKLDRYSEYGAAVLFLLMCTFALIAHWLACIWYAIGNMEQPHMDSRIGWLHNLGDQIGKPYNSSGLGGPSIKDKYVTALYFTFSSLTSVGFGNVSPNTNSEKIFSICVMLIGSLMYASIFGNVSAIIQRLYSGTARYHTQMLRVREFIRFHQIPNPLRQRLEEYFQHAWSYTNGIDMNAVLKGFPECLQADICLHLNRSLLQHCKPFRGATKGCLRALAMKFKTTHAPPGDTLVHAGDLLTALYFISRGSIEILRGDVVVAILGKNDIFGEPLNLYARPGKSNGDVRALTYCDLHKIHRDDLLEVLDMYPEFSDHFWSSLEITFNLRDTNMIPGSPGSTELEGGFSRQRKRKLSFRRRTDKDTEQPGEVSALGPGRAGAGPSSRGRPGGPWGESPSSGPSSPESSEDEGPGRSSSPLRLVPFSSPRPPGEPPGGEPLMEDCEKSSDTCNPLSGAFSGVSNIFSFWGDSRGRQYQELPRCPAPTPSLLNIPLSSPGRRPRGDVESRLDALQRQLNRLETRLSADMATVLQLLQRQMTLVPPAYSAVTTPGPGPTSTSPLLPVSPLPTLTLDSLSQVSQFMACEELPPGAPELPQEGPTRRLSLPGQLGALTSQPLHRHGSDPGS
pIC50: −log10 of the molar value. Structures can show the parent of a compound that is named as a salt.
I'd appreciate it if you could supply pIC50 values for the items below.

Below, each entry is followed by its recorded pIC50 result.
N#Cc1ccc(-c2cc(C(=O)N3CCC[C@@H](N)C3)sc2-c2ccc3oncc3c2)cc1F; < 4.40
CC(C)(O)Cn1nnc2cc(-c3sc(C(=O)N4C5CCC4C(N)C5)cc3-c3ccc(C#N)c(F)c3)ccc21 (stereo not shown) [Hydrochloride of compound 16]; < 4.40
N#Cc1ccc(-c2cc(C(=O)N3CCC[C@@H](N)C3)sc2-c2ccc(OCC(O)CO)c(F)c2)cc1F (stereo partly shown) [Hydrochloride of compound 54]; < 4.40

Q: What value of measured pIC50 is listed for N#Cc1ccc(-c2cc(C(=O)N3CCC[C@@H](N)C3)sc2-c2ccc3c(cnn3CC(O)CO)c2)cc1F (stereo partly shown) [Hydrochloride of compound 62] ?
A: < 4.40

Every entry's value here was drawn from patent US20240199571A1.
